# Tested on: HUVEC
# Assay info: Proliferation assay
# Assay type: cell-based
# Assay conditions: Homo sapiens, 72 h, n = 4
Observation type: GI50

### Prompt Given the entry C[C@H]1COC2(CCN(c3nc(=O)c4cc(C(N)=O)cc([N+](=O)[O-])c4s3)CC2)O1 [Compound 7a] , report its measured GI50.
### Response > 123 µM

### Prompt Endpoint output: GI50 of C[C@H]1COC2(CCN(c3nc(=O)c4cc(C(=O)OCCI)cc([N+](=O)[O-])c4s3)CC2)O1 [Compound 6e] . Value?
### Response 30.8 µM

### Prompt Recorded GI50 of CON(C)C(=O)c1cc([N+](=O)[O-])c2sc(N3CCC4(CC3)OC[C@H](C)O4)nc(=O)c2c1 [Compound 7f] , please.
### Response 98.5 µM

### Prompt // GI50 lookup, key: C[C@H]1COC2(CCN(c3nc(=O)c4cc(C(=O)OCCO)cc([N+](=O)[O-])c4s3)CC2)O1 [Compound 6d]
### Response 73.3 µM

### Prompt What measured GI50 goes with C[C@H]1COC2(CCN(c3nc(=O)c4cc(Br)cc([N+](=O)[O-])c4s3)CC2)O1 [Compound 11] ?
### Response > 113 µM

### Prompt Look up GI50 for this compound: COC(=O)c1cc([N+](=O)[O-])c2sc(N3CCC4(CC3)OC[C@H](C)O4)nc(=O)c2c1 [Compound 6a]
### Response 80.6 µM

### Prompt Endpoint output: GI50 of C[C@H]1COC2(CCN(c3nc(=O)c4cc(C(=O)O)cc([N+](=O)[O-])c4s3)CC2)O1 [Compound 8] . Value?
### Response > 123 µM

### Prompt Which GI50 value is on record for CCOC(=O)c1cc([N+](=O)[O-])c2sc(N3CCC4(CC3)OC[C@H](C)O4)nc(=O)c2c1 [Compound 6b] ?
### Response 49.1 µM

### Prompt Given the compound C[C@H]1COC2(CCN(c3nc(=O)c4cc(C(F)(F)F)cc([N+](=O)[O-])c4s3)CC2)O1 [Compound 1, reference compound] , what is its reported GI50?
### Response > 116 µM

### Prompt // returns reported GI50 for input C[C@H]1COC2(CCN(c3nc(=O)c4cc(I)cc([N+](=O)[O-])c4s3)CC2)O1 [Compound 10]
### Response > 102 µM

### Prompt Could you share which GI50 value was measured for C[C@H]1COC2(CCN(c3nc(=O)c4cc(C5=NCCO5)cc([N+](=O)[O-])c4s3)CC2)O1 [Compound 7e] ?
### Response > 116 µM

### Prompt Would you kindly share the measured GI50 for C[C@H]1COC2(CCN(c3nc(=O)c4cc(C(=O)N(C)C)cc([N+](=O)[O-])c4s3)CC2)O1 [Compound 7c] ?
### Response > 115 µM

### Prompt GET /values?readout=GI50&item= C[C@H]1COC2(CCN(c3nc(=O)c4cc(C#N)cc([N+](=O)[O-])c4s3)CC2)O1 [Compound 9]
### Response 49.9 µM

### Prompt What value of GI50 has been recorded for this entry: C[C@H]1COC2(CCN(c3nc(=O)c4cccc([N+](=O)[O-])c4s3)CC2)O1 [Compound 23]
### Response > 137 µM

### Prompt GI50 lookup needed for C[C@H]1COC2(CCN(c3nc(=O)c4cc(C(=O)OCCOC(=O)c5cc([N+](=O)[O-])c6sc(N7CCC8(CC7)OC[C@H](C)O8)nc(=O)c6c5)cc([N+](=O)[O-])c4s3)CC2)O1 [Compound 6f] , thanks.
### Response > 59 µM

### Prompt Which GI50 value belongs to C[C@H]1COC2(CCN(c3nc(=O)c4cc(C(=O)NCCO)cc([N+](=O)[O-])c4s3)CC2)O1 [Compound 7d] ?
### Response > 111 µM

### Prompt Dear colleague, I am looking for the recorded GI50 of the following compound: CNC(=O)c1cc([N+](=O)[O-])c2sc(N3CCC4(CC3)OC[C@H](C)O4)nc(=O)c2c1 [Compound 7b]
### Response > 119 µM

### Prompt Give its GI50 value. Item: CC(C)OC(=O)c1cc([N+](=O)[O-])c2sc(N3CCC4(CC3)OC[C@H](C)O4)nc(=O)c2c1 [Compound 6c]
### Response > 111 µM

###

# Assay info: Cytotoxicity assay
# Format: cell-based
# Assay conditions: human, n = 4
Please respond with reported CC50 at 72 h for every item in the list.

### Prompt Recorded CC50 at 72 h of C[C@H]1COC2(CCN(c3nc(=O)c4cc(I)cc([N+](=O)[O-])c4s3)CC2)O1 , please.
### Response > 102 µM

### Prompt What value of CC50 at 72 h has been recorded for this entry: C[C@H]1COC2(CCN(c3nc(=O)c4cc(C(=O)NCCO)cc([N+](=O)[O-])c4s3)CC2)O1
### Response > 111 µM

### Prompt Which CC50 at 72 h is listed for CNC(=O)c1cc([N+](=O)[O-])c2sc(N3CCC4(CC3)OC[C@H](C)O4)nc(=O)c2c1 ?
### Response > 119 µM

### Prompt // CC50 at 72 h lookup, key: C[C@H]1COC2(CCN(c3nc(=O)c4cc(C5=NCCO5)cc([N+](=O)[O-])c4s3)CC2)O1
### Response > 116 µM

###

# Assay info: Cytotoxicity assay
# Assay type: cell-based
# Assay conditions: human, n = 4
I'd appreciate it if you could supply CC50 at 72 h values for the items below.

### Prompt Dear colleague, I am looking for the recorded CC50 at 72 h of the following molecule: C[C@H]1COC2(CCN(c3nc(=O)c4cc(C(=O)O)cc([N+](=O)[O-])c4s3)CC2)O1
### Response > 123 µM

### Prompt What value of measured CC50 at 72 h is listed for C[C@H]1COC2(CCN(c3nc(=O)c4cc(C(=O)OCCO)cc([N+](=O)[O-])c4s3)CC2)O1 ?
### Response > 111 µM

### Prompt # query: CC50 at 72 h of entry C[C@H]1COC2(CCN(c3nc(=O)c4cc(C(N)=O)cc([N+](=O)[O-])c4s3)CC2)O1
### Response > 123 µM

###

# System: Mycobacterium vaccae (JMRC:STI:10670)
# Assay info: MIC determination
# Format: cell-based
# Assay conditions: ratio between CC50 (HeLa) and MIC M. vaccae
Hi there, I'd appreciate the recorded Selectivity index for every entry that follows.

### Prompt Lab note: need Selectivity index for C[C@H]1COC2(CCN(c3nc(=O)c4cc(C(=O)N(C)C)cc([N+](=O)[O-])c4s3)CC2)O1 on Mycobacterium vaccae (JMRC:STI:10670), anyone have it?
### Response > 4

### Prompt What reported Selectivity index corresponds to C[C@H]1COC2(CCN(c3nc(=O)c4cc(C(=O)OCCO)cc([N+](=O)[O-])c4s3)CC2)O1 on Mycobacterium vaccae (JMRC:STI:10670)?
### Response > 8

### Prompt Item C[C@H]1COC2(CCN(c3nc(=O)c4cc(C#N)cc([N+](=O)[O-])c4s3)CC2)O1 with Mycobacterium vaccae (JMRC:STI:10670) - Selectivity index?
### Response > 8062

### Prompt Enter reported Selectivity index observed with Mycobacterium vaccae (JMRC:STI:10670) for C[C@H]1COC2(CCN(c3nc(=O)c4cc(Br)cc([N+](=O)[O-])c4s3)CC2)O1
### Response > 31236

### Prompt # query: Selectivity index | item C[C@H]1COC2(CCN(c3nc(=O)c4cc(C(=O)OCCOC(=O)c5cc([N+](=O)[O-])c6sc(N7CCC8(CC7)OC[C@H](C)O8)nc(=O)c6c5)cc([N+](=O)[O-])c4s3)CC2)O1 | system: Mycobacterium vaccae (JMRC:STI:10670)
### Response > 4

### Prompt GET /values?readout=Selectivity index&system=Mycobacterium vaccae (JMRC:STI:10670)&item= CNC(=O)c1cc([N+](=O)[O-])c2sc(N3CCC4(CC3)OC[C@H](C)O4)nc(=O)c2c1
### Response > 2

### Prompt Observed Selectivity index on Mycobacterium vaccae (JMRC:STI:10670) for C[C@H]1COC2(CCN(c3nc(=O)c4cccc([N+](=O)[O-])c4s3)CC2)O1 , please.
### Response > 125

###

# System: K-562
# Assay info: Proliferation assay
# Type: cell-based
# Assay conditions: Homo sapiens, K562; 72 h, n = 4
Observation type: GI50

### Prompt What value of GI50 has been recorded for this entry: C[C@H]1COC2(CCN(c3nc(=O)c4cccc([N+](=O)[O-])c4s3)CC2)O1
### Response > 138 µM

### Prompt Please look up its GI50: CON(C)C(=O)c1cc([N+](=O)[O-])c2sc(N3CCC4(CC3)OC[C@H](C)O4)nc(=O)c2c1
### Response > 111 µM

### Prompt Consider the compound shown here: C[C@H]1COC2(CCN(c3nc(=O)c4cc(C#N)cc([N+](=O)[O-])c4s3)CC2)O1 What is its recorded GI50?
### Response 94.4 µM

### Prompt // GI50 lookup, key: C[C@H]1COC2(CCN(c3nc(=O)c4cc(C(N)=O)cc([N+](=O)[O-])c4s3)CC2)O1
### Response > 123 µM

### Prompt What GI50 value was documented for this compound, C[C@H]1COC2(CCN(c3nc(=O)c4cc(Br)cc([N+](=O)[O-])c4s3)CC2)O1 ?
### Response > 113 µM

### Prompt Any idea what GI50 was measured for C[C@H]1COC2(CCN(c3nc(=O)c4cc(C(=O)NCCO)cc([N+](=O)[O-])c4s3)CC2)O1 ?
### Response > 111 µM

### Prompt Consider the compound shown here: CC(C)OC(=O)c1cc([N+](=O)[O-])c2sc(N3CCC4(CC3)OC[C@H](C)O4)nc(=O)c2c1 What is its recorded GI50?
### Response > 111 µM

### Prompt Query: GI50; subject: COC(=O)c1cc([N+](=O)[O-])c2sc(N3CCC4(CC3)OC[C@H](C)O4)nc(=O)c2c1
### Response 66.9 µM

### Prompt // lookup GI50 for C[C@H]1COC2(CCN(c3nc(=O)c4cc(C(=O)N(C)C)cc([N+](=O)[O-])c4s3)CC2)O1
### Response > 115 µM

### Prompt Return reported GI50; argument: CCOC(=O)c1cc([N+](=O)[O-])c2sc(N3CCC4(CC3)OC[C@H](C)O4)nc(=O)c2c1
### Response 50.7 µM

### Prompt GI50 for C[C@H]1COC2(CCN(c3nc(=O)c4cc(C5=NCCO5)cc([N+](=O)[O-])c4s3)CC2)O1 ?
### Response > 116 µM

### Prompt Can you share its GI50? I mean this compound: C[C@H]1COC2(CCN(c3nc(=O)c4cc(I)cc([N+](=O)[O-])c4s3)CC2)O1
### Response > 102 µM

### Prompt Give the measured GI50 of C[C@H]1COC2(CCN(c3nc(=O)c4cc(C(=O)O)cc([N+](=O)[O-])c4s3)CC2)O1 .
### Response > 123 µM

### Prompt Which GI50 value belongs to CNC(=O)c1cc([N+](=O)[O-])c2sc(N3CCC4(CC3)OC[C@H](C)O4)nc(=O)c2c1 ?
### Response > 119 µM

### Prompt What measured GI50 goes with C[C@H]1COC2(CCN(c3nc(=O)c4cc(C(=O)OCCI)cc([N+](=O)[O-])c4s3)CC2)O1 ?
### Response 27.6 µM

### Prompt Please report the recorded GI50 for C[C@H]1COC2(CCN(c3nc(=O)c4cc(C(=O)OCCO)cc([N+](=O)[O-])c4s3)CC2)O1 .
### Response 17.9 µM

### Prompt I am curious: what GI50 value has been reported for C[C@H]1COC2(CCN(c3nc(=O)c4cc(C(F)(F)F)cc([N+](=O)[O-])c4s3)CC2)O1 [Compound 1, reference compound] ?
### Response > 116 µM

### Prompt Name the recorded GI50 for C[C@H]1COC2(CCN(c3nc(=O)c4cc(C(=O)OCCOC(=O)c5cc([N+](=O)[O-])c6sc(N7CCC8(CC7)OC[C@H](C)O8)nc(=O)c6c5)cc([N+](=O)[O-])c4s3)CC2)O1 .
### Response > 59 µM

# credit: paper PMC11227536
